test system: Staphylococcus aureus; assay: Antimicrobial activity against methicillin-resistant Staphylococcus aureus USA500 assessed as reduction in bacterial growth incubated for 18 to 20 hrs at 37 degC by broth microdilution method; assay type: functional
Measurement label: MIC (µM)

Chemical smiles: [C-]#[N+]c1cccc(/C=C/c2ccccc2)c1
Unit symbol: µM
Comparison symbol: >
Value observed: 128
//
Chemical smiles: [C-]#[N+]c1ccccc1/C=C/c1ccccc1C(F)(F)F
Unit symbol: µM
Comparison symbol: =
Value observed: 16
//
Chemical smiles: [C-]#[N+]c1ccccc1/C=C(\C)c1ccccc1
Unit symbol: µM
Comparison symbol: >
Value observed: 128
//
Chemical smiles: [C-]#[N+]c1ccccc1/C=C/c1ccccc1OC
Unit symbol: µM
Comparison symbol: =
Value observed: 8
//
Chemical smiles: [C-]#[N+]c1ccc(/C=C/c2ccccn2)cc1
Unit symbol: µM
Comparison symbol: =
Value observed: 64
//
Chemical smiles: [C-]#[N+]c1ccccc1CP(=O)(OCC)OCC
Unit symbol: µM
Comparison symbol: >
Value observed: 128
//
Chemical smiles: [C-]#[N+]c1ccccc1/C=C(\CCC)c1ccccc1
Unit symbol: µM
Comparison symbol: =
Value observed: 16
//
Chemical smiles: [C-]#[N+]c1ccccc1/C=C/c1cccc(OC)c1
Unit symbol: µM
Comparison symbol: =
Value observed: 32
//
Chemical smiles: [C-]#[N+]c1cccc(/C=C/c2cccnc2)c1
Unit symbol: µM
Comparison symbol: =
Value observed: 64
//
Chemical smiles: [C-]#[N+]c1ccccc1/C=C/c1ccncc1
Unit symbol: µM
Comparison symbol: =
Value observed: 32
//
Chemical smiles: [C-]#[N+]c1ccccc1C=C1CCCCC1
Unit symbol: µM
Comparison symbol: >
Value observed: 128
//
Chemical smiles: [C-]#[N+]c1ccccc1/C=C/c1ccccn1
Unit symbol: µM
Comparison symbol: =
Value observed: 64
//
Chemical smiles: [C-]#[N+]c1ccccc1/C=C/c1cccc(F)c1
Unit symbol: µM
Comparison symbol: =
Value observed: 128

Source: ChEMBL document CHEMBL3611989
